This collection of values is drawn from patent US20100291114A1.

Target: T1, His-tagged IgD2-D3 of human FGFR3-IIIb (human, UniProt P22607-2 143-374, limits assumed)
T1 construct: domain: IgD2-D3; also called FGFR3-IIIb-His protein; Human FGFR3 ECD IIIb; not shown: His tag
T1 sequence (looked up): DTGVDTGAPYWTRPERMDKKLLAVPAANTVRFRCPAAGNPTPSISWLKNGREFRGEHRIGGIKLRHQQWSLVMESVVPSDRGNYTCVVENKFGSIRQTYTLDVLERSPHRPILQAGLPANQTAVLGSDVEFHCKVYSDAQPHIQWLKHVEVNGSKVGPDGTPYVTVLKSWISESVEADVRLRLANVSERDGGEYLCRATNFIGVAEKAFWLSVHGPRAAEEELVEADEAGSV
Assay: BIAcore SPR; antibody on CM5 chip, FGFR3-His protein injected
Recorded pKd for the following binders
The meaning of pKd here: minus log10 of the concentration in molar units.

{"BINDER": "anti-FGFR3 antibody clone 184.6.58 (antibody, V domains shown) VH: EVQLVESGGGLVQPGGSLRLSCAASGFTFTSTGISWVRQAPGKGLEWVGRIYPTNGSTNYADSVKGRFTISADTSKNTAYLQMNSLRAEDTAVYYCARARTYGIYDLYVDYTEYVMDYWGQGTLV VL: DIQMTQSPSSLSASVGDRVTITCRASQDVDISLAWYQQKPGKAPKLLIYSASSLASGVPSRFSGSGSGTDFTLTISSLQPEDFATYYCQQGAGNPYTFGQGTKVEIKR", "pKd": 9.72}
{"BINDER": "anti-FGFR3 antibody clone 184.6.62 (antibody, V domains shown) VH: EVQLVESGGGLVQPGGSLRLSCAASGFTFSTTGISWVRQAPGKGLEWVGRIYPLYGSTHYADSVKGRFTISADTSKNTAYLQMNSLRAEDTAVYYCARARTYGIYDLYVDYTEYVMDYWGQGTLV VL: DIQMTQSPSSLSASVGDRVTITCRASQDVSTAVAWYQQKPGKAPKLLIYSASFLYSGVPSRFSGSGSGTDFTLTISSLQPEDFATYYCQQTYTTSLTFGQGTKVEIKR", "pKd": 9.92}
{"BINDER": "anti-FGFR3 antibody clone 184.6.1 (antibody, V domains shown) VH: EVQLVESGGGLVQPGGSLRLSCAASGFTFTSTGISWVRQAPGKGLEWVGRIYPTNGSTNYADSVKGRFTISADTSKNTAYLQMNSLRAEDTAVYYCARARTYGIYDLYVDYTEYVMDYWGQGTLV VL: DIQMTQSPSSLSASVGDRVTITCRASQDVDTSLAWYQQKPGKAPKLLIYSASFLYSGVPSRFSGSGSGTDFTLTISSLQPEDFATYYCQQSTGHPQTFGQGTKVEIKR", "pKd": 9.58}

Now take the following binder into account.
The reported value for anti-FGFR3 antibody clone 184.6 (antibody, V domains shown, The tie to the clone name is indirect) VH: EVQLVESGGGLVQPGGSLRLSCAASGFTFTSTGISWVRQAPGKGLEWVGRIYPTNGSTNYADSVKGRFTISADTSKNTAYLQMNSLRAEDTAVYYCARARTYGIYDLYVDYTEYVMDYWGQGTLV VL: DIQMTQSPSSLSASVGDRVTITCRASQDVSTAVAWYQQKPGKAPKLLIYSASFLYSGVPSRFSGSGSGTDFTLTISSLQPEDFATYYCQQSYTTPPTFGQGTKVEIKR in terms of pKd is 7.42
